Experiment: Bioavailability assay in rats, Experiment II (dihydrobromide)
Type: in vivo
Conditions: both sexes, rat, plasma; Wistar rats, 20 mg/kg tail intravenous injection; read-out: Vz
ASSAY_METRIC: Vd (L/kg)

INSERT INTO assay_data (molecule_smiles, assay_metric, u, observed_measurement) VALUES
  ('Br.Br.COCCOc1cc2ncnc(Nc3ccc(F)c(Cl)c3)c2cc1NC(=O)C=C1CCN(CCOC)CC1', 'Vd', 'L/kg', 12.2);

----------
Experiment: Bioavailability assay, Experiment III (free base)
Type: in vivo
Conditions: male, rat, plasma, po; Wistar rats, 20 mg/kg intragastric gavage, preformulation
Protocol: Experiment III. Bioavailability Assay for N-[4-(3-chloro-4-fluorophenylamino)-7-(2-methoxyethoxy)quinazolin-6-yl]-2-[1-(2-methoxyethyl)piperidin-4-ylidene]acetamide 8 Wistar rats (male, weighing 160-190 g) were purchased from Laboratory Animal Center, Chinese PLA Academy of Military Medical Sciences. License No.: SCXK (Army) 2012-0004; Certificate No.: 0037074. […] The main pharmacokinetic parameters and oral bioavailability results were calculated by using DAS2.0 (statistical moment). […]
ASSAY_METRIC: AUC(0-t)

INSERT INTO measurements (molecule_smiles, observed_measurement) VALUES
  ('COCCOc1cc2ncnc(Nc3ccc(F)c(Cl)c3)c2cc1NC(=O)C=C1CCN(CCOC)CC1', '2190 ng·h/mL');

----------
Experiment: Bioavailability assay, Experiment III (free base)
Type: in vivo
Settings: male, rat, plasma, po; Wistar rats, 20 mg/kg intragastric gavage, preformulation
ASSAY_METRIC: Cmax (ng/mL)

INSERT INTO results (molecule_smiles, observed_measurement) VALUES
  ('COCCOc1cc2ncnc(Nc3ccc(F)c(Cl)c3)c2cc1NC(=O)C=C1CCN(CCOC)CC1', 416);

----------
Test: Bioavailability assay, Experiment III (free base)
Assay type: in vivo
Conditions: male, rat, plasma, po; Wistar rats, 20 mg/kg intragastric gavage, preformulation
ASSAY_METRIC: AUC(0-inf)

INSERT INTO measurements (molecule_smiles, observed_measurement) VALUES
  ('COCCOc1cc2ncnc(Nc3ccc(F)c(Cl)c3)c2cc1NC(=O)C=C1CCN(CCOC)CC1', '3320 ng·h/mL');

----------
Test: Bioavailability assay in rats, Experiment II (dihydrobromide)
Type: in vivo
Conditions: both sexes, rat, plasma; Wistar rats, 20 mg/kg tail intravenous injection
ASSAY_METRIC: Tmax

INSERT INTO results (compound, assay_metric, observed_measurement) VALUES
  ('Br.Br.COCCOc1cc2ncnc(Nc3ccc(F)c(Cl)c3)c2cc1NC(=O)C=C1CCN(CCOC)CC1 [Example 5]', 'Tmax', '4.98 min');

----------
Assay: Bioavailability assay in rats, Experiment I (dihydrochloride)
Assay type: in vivo
Settings: male, rat, plasma, po; Wistar rats, 20 mg/kg ig
ASSAY_METRIC: AUC (ng·h/mL)

INSERT INTO assay_data (compound, assay_metric, observed_measurement) VALUES
  ('COCCOc1cc2ncnc(Nc3ccc(F)c(Cl)c3)c2cc1NC(=O)C=C1CCN(CCOC)CC1.Cl.Cl [Compound 2]', 'AUC', 7350);

----------
Test: Bioavailability assay in rats, Experiment I (dihydrochloride)
Type: in vivo
Details: male, rat, plasma; Wistar rats, 20 mg/kg iv, 2 h; read-out: Average Plasma Drug Concentration
ASSAY_METRIC: concentration at 2 h (ng/mL)

INSERT INTO results (molecule, assay_metric, u, observed_measurement) VALUES
  ('COCCOc1cc2ncnc(Nc3ccc(F)c(Cl)c3)c2cc1NC(=O)C=C1CCN(CCOC)CC1.Cl.Cl [Compound 2, dihydrochloride]', 'concentration at 2 h', 'ng/mL', 1330);
